# Tested on: LOX IMVI
# Assay Text: NCI tumour cell line growth inhibition, 48 h
Active and inactive are the calls of the source. No stated cut-off is given here; in the data, active = GI50 up to about 1.1 µM and inactive = higher.
Outcomes: active, inactive

{"Molecule": "COc1ccc(C2C3=CONC3CC3CCCCC32)cc1 (centres undefined)", "Test Target": "LOX IMVI", "Answer Label": "inactive"}
{"Molecule": "CC(C)CC1C(=O)NCCC(NC(=O)C(Cc2ccc(OC(C)(C)C)cc2)NC(=O)OC(C)(C)C)C(=O)NC(Cc2ccccc2)C(=O)NC(Cc2ccccc2)NC1=O (centres undefined)", "Test Target": "LOX IMVI", "Answer Label": "inactive"}
{"Molecule": "Cc1cccc(-c2nc3c(C(=O)NCCN(C)C)cccc3[nH]2)c1", "Test Target": "LOX IMVI", "Answer Label": "active"}
{"Molecule": "O=c1[nH]c(=O)n(C2OC(CO)C(N(O)Cc3ccc(F)cc3)C2O)cc1Br (centres undefined)", "Test Target": "LOX IMVI", "Answer Label": "inactive"}
{"Molecule": "CCCCN/C(=N/C#N)NCc1ccccc1", "Test Target": "LOX IMVI", "Answer Label": "inactive"}
{"Molecule": "CCN1C/C(=C\\c2ccc(Cl)cc2)c2nc(N)c(C#N)c(-c3ccc(Cl)cc3)c2C1", "Test Target": "LOX IMVI", "Answer Label": "inactive"}
{"Molecule": "COC(=O)CCC(NC(=O)OC(C)(C)C)C(=O)NC(Cc1ccc(NC(=O)CCCC(C)=O)cc1)C(=O)NC(CCC(=O)OC)C(=O)OC (centres undefined)", "Test Target": "LOX IMVI", "Answer Label": "inactive"}
{"Molecule": "N#Cc1c(N)c2c(c(-c3ccccc3)c1-c1ccccc1)C(=O)N(NC(=S)Nc1ccccc1)C2=O", "Test Target": "LOX IMVI", "Answer Label": "inactive"}
{"Molecule": "CC(=O)CC(=O)Nn1c(-c2cccs2)nc2ccc(I)cc2c1=O", "Test Target": "LOX IMVI", "Answer Label": "inactive"}

* * *

# Test system: IGROV-1
# Assay Text: NCI tumour cell line growth inhibition, 48 h
Calls of active or inactive are those of the source. No stated cut-off is given here; in the data, active = GI50 up to about 1.1 µM and inactive = higher.
Recorded GI50 values for a group of molecules are listed next.

{"Molecule": "NNC(=O)CCCCCCCC(=O)O", "Test Target": "IGROV-1", "GI50": "> 100 µM (inactive)"}
{"Molecule": "COc1cc(-c2cc(-c3cc([N+](=O)[O-])c(/C=N/NC(=O)c4ccncc4)o3)ccc2OC)ccc1C", "Test Target": "IGROV-1", "GI50": "> 100 µM (inactive)"}
{"Molecule": "COC(=O)C1=C(C(=O)OC)SC(=C2SC3=C(SC(=C4SCCS4)S3)S2)S1", "Test Target": "IGROV-1", "GI50": "> 100 µM (inactive)"}
{"Molecule": "O=C(NCc1cccc2ccccc12)N/N=C\\c1ccc(Cl)cc1", "Test Target": "IGROV-1", "GI50": "> 100 µM (inactive)"}
{"Molecule": "CC(C)(Cl)C(Cl)CC/C(CBr)=C(\\Cl)CCl (stereo not given)", "Test Target": "IGROV-1", "GI50": "2.04 µM (inactive)"}

* * *

# Tested on: MOLT-4
# Assay Text: NCI tumour cell line growth inhibition, 48 h
The source made the active and inactive calls. Cut-off read from the data, not from the text of the source: active = GI50 up to about 1.1 µM and inactive = higher.
Possible outcomes: active, inactive

{"Compound": "CC(=O)O[C@H]1CC[C@H]2[C@@H]3CCC(C(C)=O)[C@H](C(=O)O)[C@H]3CC[C@]12C (some centres undefined)", "Test Target": "MOLT-4", "Answer Label": "inactive"}
{"Compound": "Nc1nnnn1NC(=O)NCCCl", "Test Target": "MOLT-4", "Answer Label": "inactive"}
{"Compound": "COc1ccc2c(c1)OC[C@@H]1c3cc4c(cc3O[C@H]21)OCO4", "Test Target": "MOLT-4", "Answer Label": "inactive"}
{"Compound": "CCOC(=O)Cn1sc2ncc([N+](=O)[O-])cc2c1=O", "Test Target": "MOLT-4", "Answer Label": "inactive"}
{"Compound": "COc1ccc(Nc2nc(N)c(C(=O)c3ccccc3)s2)cc1", "Test Target": "MOLT-4", "Answer Label": "active"}
{"Compound": "NNC(=O)CCCCCCCC(=O)O", "Test Target": "MOLT-4", "Answer Label": "inactive"}
{"Compound": "O=c1cc(/C=C/c2ccc(O)c(O)c2)oc(/C=C/c2ccc(O)c(O)c2)c1", "Test Target": "MOLT-4", "Answer Label": "inactive"}
{"Compound": "O=C(Cc1nc2ccccc2s1)Nc1cccc(C(F)(F)F)c1", "Test Target": "MOLT-4", "Answer Label": "inactive"}
{"Compound": "Cc1ccc(S(=O)(=O)N/N=C/C(C)C)cc1", "Test Target": "MOLT-4", "Answer Label": "inactive"}

* * *

Quick list: GI50 per entry.
# System: DU-145
# Assay Text: NCI tumour cell line growth inhibition, 48 h
Active and inactive are the calls of the source. Cut-off read from the data, not from the text of the source: active = GI50 up to about 1.1 µM and inactive = higher.

{"Compound": "OC1(c2ccc(-c3ccccc3)cc2)c2ccccc2C2=NCCN21 (centres undefined)", "GI50": "> 100 µM (inactive)"}
{"Compound": "O=C1C(Br)=C(c2ccccc2)C(c2ccccc2)=C1c1ccccc1", "GI50": "13.2 µM (inactive)"}
{"Compound": "C=CC(=O)c1ccc2c(c1)OCCOCCOCCOCCOCCO2", "GI50": "> 100 µM (inactive)"}
{"Compound": "COc1cc(C2S/C(=C/c3ccccc3)C(=O)N2c2cc(Cl)c(Cl)cc2Cl)cc(OC)c1OC (centres undefined)", "GI50": "30.2 µM (inactive)"}
{"Compound": "CC(=O)OC1CC2C(=O)C(=O)C1(C)C2(C)C (centres undefined)", "GI50": "> 100 µM (inactive)"}
{"Compound": "COc1cc(NCc2ccc3nc(-c4ccccc4)c(N)nc3c2)cc(OC)c1OC", "GI50": "36.6 µM (inactive)"}
{"Compound": "Oc1ccc2c(c1)OCC1c3ccccc3OC21 (centres undefined)", "GI50": "> 100 µM (inactive)"}
{"Compound": "Cc1[nH]c(-c2ccccc2)c2nc(N(C)C)oc(=O)c12", "GI50": "> 100 µM (inactive)"}
{"Compound": "CCOC(=O)NC(Nc1ccc(C)cc1)(C(F)(F)F)C(F)(F)F", "GI50": "> 100 µM (inactive)"}

* * *

# System: SNB-19
# Assay Text: NCI tumour cell line growth inhibition, 48 h
Calls of active or inactive are those of the source. Cut-off read from the data, not from the text of the source: active = GI50 up to about 1.1 µM and inactive = higher.
Labels: True = active, False = inactive

{"Molecule": "CN(C)CCn1c(=O)c2ccc(NCCNCCO)c3c(=O)c4ccccc4n(c1=O)c23", "Answer Label": "True"}
{"Molecule": "Cn1cnc(C(N)=[Se])c1N", "Answer Label": "False"}
{"Molecule": "C=CCn1c2ccccc2[n+]2cc([N+](=O)[O-])ccc12", "Answer Label": "False"}
{"Molecule": "C=CC(=O)c1ccc2c(c1)OCCOCCOCCOCCOCCO2", "Answer Label": "False"}
{"Molecule": "Nc1nc(Cl)c(CO)c(NCC2(CO)CC(CCc3ccccc3)C2)n1 (configuration not stated)", "Answer Label": "False"}
{"Molecule": "C1CSCCSCCS1", "Answer Label": "False"}
{"Molecule": "O=C1OC(CN2CCOCC2)CN1/N=C/c1ccc([N+](=O)[O-])o1 (configuration not stated)", "Answer Label": "False"}

* * *

GI50 values for the molecules below.
# Tested on: RXF 393
# Assay Text: NCI tumour cell line growth inhibition, 48 h
Active and inactive are the calls of the source. No stated cut-off is given here; in the data, active = GI50 up to about 1.1 µM and inactive = higher.

{"Chem Smiles": "Cc1ccc(NC(=O)c2cccc(OP(=O)(O)Nc3ccc(C)cc3)c2)cc1", "GI50": "> 100 µM (inactive)"}
{"Chem Smiles": "O=C(c1ccccc1)c1ccc2cccc(O)c2n1", "GI50": "16.4 µM (inactive)"}
{"Chem Smiles": "NC1=C(Cl)C(=O)c2c(O)ccc(O)c2C1=O", "GI50": "7.45 µM (inactive)"}
{"Chem Smiles": "N#Cc1c(Cl)cc(Cl)n2c1nc1ccccc12", "GI50": "13.2 µM (inactive)"}

* * *

# System: CAKI-1
# Assay Text: NCI tumour cell line growth inhibition, 48 h
Calls of active or inactive are those of the source. Rule as the data show it: active = GI50 up to about 1.1 µM and inactive = higher.
Labels: active, inactive

{"Molecule": "COc1cc(C2S/C(=C/c3ccccc3)C(=O)N2c2cc(Cl)c(Cl)cc2Cl)cc(OC)c1OC (stereo unspecified)", "Answer Label": "inactive"}
{"Molecule": "CCOC(=O)c1sc2[n+](c1C)C(=O)/C(=C/c1ccccc1Cl)S2", "Answer Label": "active"}
{"Molecule": "O=C(Cc1nc2ccccc2s1)Nc1cccc(C(F)(F)F)c1", "Answer Label": "inactive"}
{"Molecule": "C=CC(C)(C)n1cc(C2=C(O)C(=O)C(c3cn(C(C)(C)C=C)c4ccccc34)=C(OC(C)=O)C2=O)c2ccccc21", "Answer Label": "active"}
{"Molecule": "C[N+](C)(C)CC1CCCc2ccccc2C1=O (stereo unspecified)", "Answer Label": "inactive"}
{"Molecule": "CCOC(=O)C(=O)Nc1nc2c(s1)C(=O)c1ccccc1C2=O", "Answer Label": "inactive"}
{"Molecule": "Cc1c2cccc-2c2cc(O)c3ccccc3c2n1-c1ccc(N(C)C)cc1", "Answer Label": "inactive"}
{"Molecule": "CN(CCO)CC(=O)CC(O)(C(F)(F)F)C(F)(F)F", "Answer Label": "inactive"}
{"Molecule": "O=C(N/N=C/c1ccco1)c1cc(I)cc(I)c1O", "Answer Label": "inactive"}
{"Molecule": "Nc1nc(SCc2ccccn2)c2ncn(C3CCCC3)c2n1", "Answer Label": "inactive"}
{"Molecule": "Nc1nnnn1NC(=O)NCCCl", "Answer Label": "inactive"}
{"Molecule": "O=c1oc2ccccc2n1P(=O)(Oc1ccc(Cl)cc1)n1c(=O)oc2ccccc21", "Answer Label": "inactive"}
{"Molecule": "COC(=O)CCC(=O)C(C#N)c1ccc(Cl)cc1Cl (stereo unspecified)", "Answer Label": "inactive"}
{"Molecule": "O=[N+]([O-])C1Cc2ccccc2OC1c1ccccc1 (stereo unspecified)", "Answer Label": "inactive"}
{"Molecule": "CC(=O)c1ccc2c(c1)oc(=O)n2CCN1CCCCC1", "Answer Label": "inactive"}
{"Molecule": "CC1=NN(c2cccc(Cl)c2)C2(SCC(=O)N2c2nc3ccccc3s2)/C1=C\\c1cccs1 (stereo unspecified)", "Answer Label": "inactive"}
{"Molecule": "CC(=O)OC1CCn2nnc(CO)c21 (stereo unspecified)", "Answer Label": "inactive"}
{"Molecule": "CC1S/C(=N/c2nnc(-c3ccccc3)o2)NC1=O (stereo unspecified)", "Answer Label": "inactive"}
{"Molecule": "NC(=O)c1cc2ccccc2o/c1=N/c1ccccc1", "Answer Label": "inactive"}
{"Molecule": "CC[n+]1c(/C=C/c2ccc(N(CCCl)CCCl)cc2)ccc2cc(NC(=O)/C=C/c3ccccc3)ccc21", "Answer Label": "inactive"}
{"Molecule": "NNC(=O)c1cc(=O)[nH][nH]1", "Answer Label": "inactive"}
{"Molecule": "O=C(O)CN(CC(=O)O)Cc1cc2c(cc1O)Oc1cc(O)c(CN(CC(=O)O)CC(=O)O)cc1C21OC(=O)c2ccccc21", "Answer Label": "inactive"}
{"Molecule": "O=c1oc2ccc3ccccc3c2cc1-c1nc2ccccc2s1", "Answer Label": "inactive"}
{"Molecule": "N/C(=N\\O)N/N=C/c1ncccc1O", "Answer Label": "inactive"}
{"Molecule": "O=C(/C=C(\\O)C(=O)O)/C=C(\\O)c1ccccc1", "Answer Label": "inactive"}
{"Molecule": "O=c1c2cc([N+](=O)[O-])ccc2oc2nc3n(c(=O)c12)CCCS3", "Answer Label": "inactive"}
{"Molecule": "Cc1ccc2sc3cc(=O)cc(C)c-3nc2c1", "Answer Label": "inactive"}
{"Molecule": "O=[N+]([O-])c1ccc(-c2noc(-c3ccc(Cl)cc3)c2C2=NCCN2)cc1", "Answer Label": "inactive"}
{"Molecule": "Cc1c(C)c(C)c(-n2[nH]c(=O)n(C)c2=O)c(C)c1C", "Answer Label": "inactive"}
{"Molecule": "CS(=O)(=O)OCCN1CCN(C(=O)c2cccc3c(Nc4ccc(S(N)(=O)=O)cc4)c4ccccc4nc23)CC1", "Answer Label": "inactive"}
{"Molecule": "CCOC(=O)C(C)Sc1nnc(COc2ccc(Cl)cc2)n1-c1ccccc1 (stereo unspecified)", "Answer Label": "inactive"}

All figures here come from ChEMBL document CHEMBL1201862.
